Sourced from patent US11318157B2

study target: PRMT5-MEP50 enzyme (Homo sapiens, UniProt O14744)
Construct: One virus expresses full length human PRMT5 with Flag-tag at N-terminus; Flag (N); purchased Charles River (Argenta); host or cells: insect cells (Sf9), baculovirus co-infection
Sequence (O14744 whole entry): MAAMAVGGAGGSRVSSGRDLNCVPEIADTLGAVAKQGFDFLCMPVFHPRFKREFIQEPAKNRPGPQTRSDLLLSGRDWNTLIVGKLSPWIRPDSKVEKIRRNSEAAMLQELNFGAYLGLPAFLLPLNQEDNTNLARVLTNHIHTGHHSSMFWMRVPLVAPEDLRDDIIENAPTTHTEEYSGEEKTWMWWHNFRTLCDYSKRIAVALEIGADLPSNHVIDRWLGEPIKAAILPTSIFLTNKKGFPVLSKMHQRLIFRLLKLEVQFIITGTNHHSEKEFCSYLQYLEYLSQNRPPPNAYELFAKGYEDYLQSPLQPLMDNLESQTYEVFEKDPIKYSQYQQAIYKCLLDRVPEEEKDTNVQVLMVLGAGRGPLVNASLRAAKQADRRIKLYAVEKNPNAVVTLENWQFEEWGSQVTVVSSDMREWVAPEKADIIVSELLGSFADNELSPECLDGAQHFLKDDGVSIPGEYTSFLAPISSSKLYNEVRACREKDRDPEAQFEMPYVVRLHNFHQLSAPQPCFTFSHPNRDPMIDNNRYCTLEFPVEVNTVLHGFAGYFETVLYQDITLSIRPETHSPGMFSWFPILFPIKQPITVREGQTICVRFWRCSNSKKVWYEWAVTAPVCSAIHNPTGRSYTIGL
Sequence (Q9BQA1 whole entry partner): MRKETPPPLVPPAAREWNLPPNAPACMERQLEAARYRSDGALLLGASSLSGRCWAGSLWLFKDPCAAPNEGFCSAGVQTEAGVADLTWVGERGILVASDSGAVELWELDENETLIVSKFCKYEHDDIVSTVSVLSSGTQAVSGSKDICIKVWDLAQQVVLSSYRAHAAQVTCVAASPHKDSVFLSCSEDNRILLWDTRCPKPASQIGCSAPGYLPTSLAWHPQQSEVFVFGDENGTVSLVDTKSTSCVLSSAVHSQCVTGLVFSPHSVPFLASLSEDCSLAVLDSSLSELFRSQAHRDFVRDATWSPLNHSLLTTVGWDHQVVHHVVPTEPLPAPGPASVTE
experimental details: In vitro assay 1b: high throughput mass spectrometer assay of SAH formation, 1.25 nM enzyme, 120 min
Format: biochemical
conditions: averaged values; PRMT5-MEP50, 1.25 nM enzyme, 120 min; read-out: pIC50 Assay 1b (converted)
Flag rule - IC50 less than 60 nM flags true (1); the remaining entries get false (0).

| compound | label value |
| --- | --- |
| O[C@@H]1[C@H](O)[C@@H](CCc2ccc3ccc(NCc4ccc(Cl)cc4)nc3c2)O[C@H]1n1ccc2cncnc21 | true (1) |
| CNc1ccc2ccc(OC[C@H]3O[C@@H](n4ccc5cncnc54)[C@H](O)[C@@H]3O)cc2n1 | true (1) |
| Nc1nc2cc(CC[C@H]3O[C@@H](n4ccc5c(N)ncnc54)[C@H](O)[C@@H]3O)ccc2cc1Br | true (1) |

Task: I wonder whether CNc1ncnc2c1ccn2[C@@H]1O[C@H](CCc2ccc3cc(Cl)c(N)nc3c2)[C@@H](O)[C@H]1O has IC50 below 60 nM. Can you tell?
Output: true (1)

Task: I wonder whether N#Cc1ccc2ccc(OC[C@H]3O[C@@H](n4ccc5c(N)ncnc54)[C@H](O)[C@@H]3O)cc2n1 has IC50 below 60 nM. Can you tell?
Output: false (0)

Task: I wonder whether Nc1ncnc2c1ccn2[C@@H]1C[C@H](CCc2ccc3ccc(NCC(F)F)nc3c2)[C@@H](O)[C@H]1O has IC50 below 60 nM. Can you tell?
Output: true (1)

Task: I wonder whether Nc1ncnc2c1ccn2[C@@H]1O[C@H](COc2cc3ncc(Br)cc3cc2F)[C@@H](O)[C@H]1O has IC50 below 60 nM. Can you tell?
Output: false (0)

Task: I wonder whether Nc1ncnc2c1ccn2[C@@H]1C[C@H](CCc2ccc3ccc(NC4CCC4)nc3c2)[C@@H](O)[C@H]1O has IC50 below 60 nM. Can you tell?
Output: true (1)

Task: I wonder whether O[C@@H]1[C@@H](CCc2ccc3ccc(NCc4ccccc4)nc3c2)C[C@@H](n2ccc3cncnc32)[C@@H]1O has IC50 below 60 nM. Can you tell?
Output: true (1)

Task: I wonder whether Nc1ncnc2c1ccn2[C@@H]1C[C@H](CCc2ccc3cc(Br)c(NC4CC4)nc3c2)[C@@H](O)[C@H]1O has IC50 below 60 nM. Can you tell?
Output: false (0)

Task: I wonder whether CC(C)Cc1cnc2cc(OC[C@H]3O[C@@H](n4ccc5c(N)ncnc54)[C@H](O)[C@@H]3O)ccc2c1 has IC50 below 60 nM. Can you tell?
Output: false (0)

Task: I wonder whether N#Cc1cnc2cc(OC[C@H]3O[C@@H](n4ccc5c(N)ncnc54)[C@H](O)[C@@H]3O)ccc2c1 has IC50 below 60 nM. Can you tell?
Output: false (0)

Task: I wonder whether O[C@@H]1[C@H](O)[C@@H](CCc2ccc3ccc(NCc4ccc(Cl)cc4)nc3c2)O[C@H]1n1ccc2c(Cl)ncnc21 has IC50 below 60 nM. Can you tell?
Output: false (0)

Task: I wonder whether CC(C)C(=O)O[C@@H]1[C@H](OC(=O)C(C)C)[C@@H](COc2ccc3ccc(C(F)(F)F)nc3c2)O[C@H]1n1ccc2c(N)ncnc21 has IC50 below 60 nM. Can you tell?
Output: false (0)

Task: I wonder whether CNc1ncnc2c1ccn2[C@@H]1C[C@H](CCc2ccc3cc(Br)c(N)nc3c2)[C@@H](O)[C@H]1O has IC50 below 60 nM. Can you tell?
Output: true (1)

Task: I wonder whether COc1ncnc2c1ccn2[C@@H]1C[C@H](CCc2ccc3ccc(NC4CC4)nc3c2)[C@@H](O)[C@H]1O has IC50 below 60 nM. Can you tell?
Output: true (1)

Task: I wonder whether Nc1ncnc2c1ccn2[C@@H]1C[C@H](COc2ccc3cc(Br)cnc3c2)[C@@H](O)[C@H]1O has IC50 below 60 nM. Can you tell?
Output: false (0)

Task: I wonder whether COc1cnc2cc(OC[C@H]3O[C@@H](n4ccc5c(N)ncnc54)[C@H](O)[C@@H]3O)ccc2c1 has IC50 below 60 nM. Can you tell?
Output: false (0)

====

study target: PRMT5-MEP50 enzyme (Homo sapiens, UniProt O14744)
Construct: One virus expresses full length human PRMT5 with Flag-tag at N-terminus; Flag (N); purchased Charles River (Argenta); host or cells: insect cells (Sf9), baculovirus co-infection
experimental details: In vitro assay 1b: high throughput mass spectrometer assay of SAH formation, 1.25 nM enzyme, 120 min
Format: biochemical
conditions: averaged values; PRMT5-MEP50, 1.25 nM enzyme, 120 min; read-out: pIC50 Assay 1b (converted)
Each item that follows carries a reported IC50.

Here's what some known entries look like.
| smiles | IC50 |
| --- | --- |
| Nc1nc2cc(CC[C@H]3C[C@@H](n4ccc5c(N)nccc54)[C@H](O)[C@@H]3O)ccc2cc1Br | 0.631 nM |
| Nc1ncnc2c1ccn2[C@@H]1O[C@H](COc2cc3ncccc3cc2C(F)(F)F)[C@@H](O)[C@H]1O | 398 nM |
| Nc1ncnc2c1ccn2[C@@H]1C[C@H](Cc2ccc3ccccc3c2)[C@@H](O)[C@H]1O | 631 nM |
| Nc1ncnc2c1ccn2[C@@H]1C[C@H](COc2ccc3cccnc3c2)[C@@H](O)[C@H]1O | 63.1 nM |

// IC50 (PRMT5-MEP50 enzyme (Homo sapiens, UniProt O14744)) for Nc1nc2cc(OC[C@H]3C[C@@H](n4ccc5c(N)ncnc54)[C@H](O)[C@@H]3O)ccc2cc1Br = < 0.2 nM

====

study target: PRMT5-MEP50 enzyme (Homo sapiens, UniProt O14744)
Construct: One virus expresses full length human PRMT5 with Flag-tag at N-terminus; Flag (N); purchased Charles River (Argenta); host or cells: insect cells (Sf9), baculovirus co-infection
experimental details: In vitro assay 1b: high throughput mass spectrometer assay of SAH formation, 1.25 nM enzyme, 120 min
Assay type: biochemical
conditions: averaged values; PRMT5-MEP50, 1.25 nM enzyme, 120 min; read-out: pIC50 Assay 1b (converted)
Label scheme for IC50: b0: < 0.8 nM; b1: ≥ 0.8 nM and < 20 nM; b2: ≥ 20 nM

Check out these entries, answers already filled in.
| smiles | label value |
| --- | --- |
| CNc1ccc2ccc(CC[C@H]3C[C@@H](n4ccc5c(OC)ncnc54)[C@H](O)[C@@H]3O)cc2n1 | b1 |
| CNc1ncnc2c1ccn2[C@@H]1C[C@H](CCc2ccc3cc(Cl)c(N)nc3c2)[C@@H](O)[C@H]1O | b0 |
| Nc1ncnc2c1ccn2[C@@H]1O[C@H](C#Cc2ccc3cccnc3c2)[C@@H](O)[C@H]1O | b2 |
| COc1ncnc2c1ccn2[C@@H]1C[C@H](CCc2ccc3cc(Cl)c(N)nc3c2)[C@@H](O)[C@H]1O | b0 |
| CC(C)(C)Nc1ccc2ccc(CC[C@H]3C[C@@H](n4ccc5c(N)ncnc54)[C@H](O)[C@@H]3O)cc2n1 | b1 |
| COc1ncnc2c1ccn2[C@@H]1C[C@H](CCc2ccc3ccc(NCC(F)F)nc3c2)[C@@H](O)[C@H]1O | b1 |
| O[C@@H]1[C@H](O)[C@@H](COc2ccc3c(Cl)ccnc3c2)O[C@H]1n1ccc2c(Cl)ncnc21 | b2 |
| COc1ncnc2c1ccn2[C@@H]1O[C@H](COc2ccc3cc(Br)cnc3c2)[C@@H](O)[C@H]1O | b2 |

Now consider a different compound.
Task: Lab note: sort Nc1ncnc2c1ccn2[C@@H]1O[C@H](COc2ccc3ccc(NCC4CC4)nc3c2)[C@@H](O)[C@H]1O into the matching IC50 band.
Output: b1

====

study target: PRMT5-MEP50 enzyme (Homo sapiens, UniProt O14744)
Construct: One virus expresses full length human PRMT5 with Flag-tag at N-terminus; Flag (N); purchased Charles River (Argenta); host or cells: insect cells (Sf9), baculovirus co-infection
experimental details: In vitro assay 1b: high throughput mass spectrometer assay of SAH formation, 1.25 nM enzyme, 120 min
Type: biochemical
conditions: averaged values; PRMT5-MEP50, 1.25 nM enzyme, 120 min; read-out: pIC50 Assay 1b (converted)
quantity name: IC50 (µM)
Give the quantity in µM, number only.

| smiles | study target | numeric value |
| --- | --- | --- |
| Cc1nc(N)c2ccn([C@@H]3O[C@H](COc4ccc5cc(Br)cnc5c4)[C@@H](O)[C@H]3O)c2n1 | PRMT5-MEP50 enzyme (Homo sapiens, UniProt O14744) | 0.2 |
| Nc1nc(Cl)nc2c1ccn2[C@@H]1O[C@H](COc2ccc3cc(Cl)cnc3c2)[C@@H](O)[C@H]1O | PRMT5-MEP50 enzyme (Homo sapiens, UniProt O14744) | 0.2 |
| Nc1ncnc2c1ccn2[C@@H]1O[C@H](COc2cc3ncc(Cl)cc3cc2Cl)[C@@H](O)[C@H]1O | PRMT5-MEP50 enzyme (Homo sapiens, UniProt O14744) | 0.2 |
| Nc1ncnc2c1ccn2[C@@H]1O[C@H](COc2ccc3c(Cl)ccnc3c2)[C@@H](O)[C@H]1O | PRMT5-MEP50 enzyme (Homo sapiens, UniProt O14744) | 0.794 |
| COc1ncnc2c1ccn2[C@@H]1C[C@H](CCc2ccc3ccc(NCC(F)(F)F)nc3c2)[C@@H](O)[C@H]1O | PRMT5-MEP50 enzyme (Homo sapiens, UniProt O14744) | 0.0398 |

The compound identified as Cc1ccnc2cc(OC[C@H]3O[C@@H](n4ccc5c(N)ncnc54)[C@H](O)[C@@H]3O)ccc12 registered its IC50 at 0.126

The compound identified as Nc1ncnc2c1ccn2[C@@H]1O[C@H](COc2ccc3cc(C4CC4)cnc3c2)[C@@H](O)[C@H]1O registered its IC50 at 0.0794
